# experimental.target: UDP-3-O-acyl-N-acetylglucosamine deacetylase (Escherichia coli K-12, UniProt P0A725)
# Sequence (P0A725 whole entry): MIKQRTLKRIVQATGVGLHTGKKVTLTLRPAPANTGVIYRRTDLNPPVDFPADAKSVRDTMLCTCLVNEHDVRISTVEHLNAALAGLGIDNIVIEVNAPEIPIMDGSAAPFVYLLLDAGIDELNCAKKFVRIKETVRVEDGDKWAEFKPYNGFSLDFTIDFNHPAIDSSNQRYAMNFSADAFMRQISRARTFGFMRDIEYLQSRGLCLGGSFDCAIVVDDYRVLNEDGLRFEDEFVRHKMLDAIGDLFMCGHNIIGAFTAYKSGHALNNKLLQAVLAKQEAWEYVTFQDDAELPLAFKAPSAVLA
reported.endpoint: log10 of IC50 (log10 of the value in nM)
Hi team, quick reminder: these entries are log10 of IC50 (nM).

Known log10 of IC50 results, listed for orientation:
# structure.string, experimental.target, log10 of IC50
measured = [
    ("CC(C)(NS(C)(=O)=O)[C@H](NC(=O)c1ccc(-c2cc3ccccc3o2)cc1)C(=O)NO", "UDP-3-O-acyl-N-acetylglucosamine deacetylase (Escherichia coli K-12, UniProt P0A725)", 1.91),
    ("Cc1ccc(-c2ccc(C(=O)N[C@H](C(=O)NO)C(C)(C)NS(C)(=O)=O)cn2)cc1", "UDP-3-O-acyl-N-acetylglucosamine deacetylase (Escherichia coli K-12, UniProt P0A725)", 3.18),
]

Prompt: State the recorded log10 of IC50 for this entry: "CC(C)(NS(C)(=O)=O)[C@H](NC(=O)c1ccc(-c2cc3ccc(O)cc3o2)cc1)C(=O)NO"
Response: 2.15

Prompt: State the recorded log10 of IC50 for this entry: "CC(C)(NS(C)(=O)=O)[C@H](NC(=O)c1ccc(-c2cc3ccc(F)cc3o2)cc1)C(=O)NO"
Response: 1.90

Prompt: State the recorded log10 of IC50 for this entry: "CC(C)(NS(C)(=O)=O)[C@H](NC(=O)c1ccc(-c2nc3ccccc3o2)cc1)C(=O)NO"
Response: 2.61

Prompt: State the recorded log10 of IC50 for this entry: "CC(C)(NS(C)(=O)=O)[C@H](NC(=O)c1ccc(-c2cc3cc(F)ccc3o2)cc1)C(=O)NO"
Response: 2.00

Prompt: State the recorded log10 of IC50 for this entry: "CC(C)(NS(C)(=O)=O)[C@H](NC(=O)c1ccc(-c2cc3cc4c(cc3o2)OCO4)cc1)C(=O)NO"
Response: 1.08
